Cytotoxicity IC50 by entry:
Test system: 3T3 NIH mouse embryo fibroblast cell line
experiment_notes: MTT cytotoxicity assay
run_parameters: 3T3 NIH cells, 48 h

{"compound_string": "CN(C)c1ccc(-c2nc3ccccc3s2)cc1", "target_of_assay": "3T3 NIH mouse embryo fibroblast cell line", "Cytotoxicity IC50": ">25 µg/mL"}
{"compound_string": "Oc1ccc(-c2nc3ccccc3s2)c(O)c1", "target_of_assay": "3T3 NIH mouse embryo fibroblast cell line", "Cytotoxicity IC50": "11.5 ± 0.0 µg/mL"}
{"compound_string": "c1csc(-c2nc3ccccc3s2)c1", "target_of_assay": "3T3 NIH mouse embryo fibroblast cell line", "Cytotoxicity IC50": ">25 µg/mL"}
{"compound_string": "Oc1ccc(-c2nc3ccccc3s2)cc1", "target_of_assay": "3T3 NIH mouse embryo fibroblast cell line", "Cytotoxicity IC50": ">25 µg/mL"}
{"compound_string": "Oc1cccc(-c2nc3ccccc3s2)c1", "target_of_assay": "3T3 NIH mouse embryo fibroblast cell line", "Cytotoxicity IC50": ">20 µg/mL"}
{"compound_string": "c1ccc2sc(-c3ccncc3)nc2c1", "target_of_assay": "3T3 NIH mouse embryo fibroblast cell line", "Cytotoxicity IC50": ">25 µg/mL"}
{"compound_string": "Oc1ccc(O)c(-c2nc3ccccc3s2)c1", "target_of_assay": "3T3 NIH mouse embryo fibroblast cell line", "Cytotoxicity IC50": ">20 µg/mL"}
{"compound_string": "Oc1cc(O)c(-c2nc3ccccc3s2)cc1O", "target_of_assay": "3T3 NIH mouse embryo fibroblast cell line", "Cytotoxicity IC50": "10.4 µg/mL"}

----------
System: IL-4 production
experiment_notes: IL-4 production by PHA stimulated PBMNCs (ELISA)
Assay type: cell-based, human
run_parameters: 18 h
parameter: IC50 IL-4 production (µg/mL)

{"compound_string": "Oc1ccc(O)c(-c2nc3ccccc3s2)c1", "operator_symbol": "=", "readout_number": 9.8}
{"compound_string": "Oc1cc(O)c(-c2nc3ccccc3s2)cc1O", "operator_symbol": "=", "readout_number": 8.0}
{"compound_string": "Oc1cccc(-c2nc3ccccc3s2)c1", "operator_symbol": "=", "readout_number": 8.9}
{"compound_string": "COc1ccc(-c2nc3ccccc3s2)cc1OC", "operator_symbol": "<", "readout_number": 1.0}
